target: DNA (cytosine-5)-methyltransferase 1 (Homo sapiens); assay: inhibition of DNA methyltransferase DNMT1 – biochemical, molecular beacon, fluorescence, HinP1I cleavage, uHTS, primary screen (AID 588458); details: at 10 µM
About 3,000 (0.83%) of roughly 360,000 compounds were called active. No stated cut-off is given here; in the data, active means inhibition above about 50%; inactive means the rest. What follows is part of a selection rich in actives, with near analogues and random picks from the rest.
Outcome (select one): TRUE for active, FALSE for inactive

molecule	discrete.label
COc1cccc(C=CC(=O)C=CC=Cc2ccccc2)c1	FALSE
Cc1ccn2c(c1)nc(=O)c1cc(S(=O)(=O)N3CCC(C)CC3)ccc12	FALSE
CCOC(=O)c1c(NC(=O)CSc2nccc(=O)[nH]2)sc(C)c1C	FALSE
CCOC(=O)c1c(C)[nH]c(C)c1C(=O)CSc1nc(N)cc(N)n1	FALSE
CCOC(=O)c1c(C)[nH]c2c1-c1ccccc1C(=O)C2=O	TRUE

Q: Check the results log: what was the call for NNc1cccc(C=Cc2ccccc2)cc1=O ?
A: TRUE

Q: Hi team, can someone confirm the assay call for O=C(COC(=O)/C=C/c1cccc(Cl)c1)NCCc1ccccc1 ?
A: FALSE

Q: Write down the call the test reported for this molecule. Item: Cc1cccc(C)c1OCCN1CCOCC1
A: FALSE

Q: Test call for this molecule, please: CCCC(C(=O)NCc1ccco1)N(C(=O)CNS(=O)(=O)c1ccccc1)C1CCCC1 (stereo unspecified)
A: FALSE

Q: Which result was noted for this molecule in the test: O=C(/C=C/c1cnc2ccccc2n1)NC1CCCCCC1
A: FALSE

Q: Any idea what this test logged for COc1cc(/C(=C/c2ccccc2)c2ccccc2)c2c(c1)oc1ccccc12 ?
A: FALSE

* * *

target: DNA (cytosine-5)-methyltransferase 1 (Homo sapiens); test: inhibition of DNA methyltransferase DNMT1 – biochemical, molecular beacon, fluorescence, HinP1I cleavage, uHTS, primary screen (AID 588458); settings: at 10 µM, stronger effect = higher value
About 3,000 (0.83%) of roughly 360,000 compounds were called active. This excerpt belongs to a sample that is enriched for actives.
property.label: inhibition (reported as % activation of signal) (%)
Numbers only, in %.

compound	obs.value
COc1ccc2sc(-c3ccc(S(C)(=O)=O)cc3)c(C#Cc3cncn3C)c2c1	-10.4

For each of the compounds below, note its inhibition (reported as % activation of signal).
1. CCc1ccc(OC2(C)CCN(CCOc3ccc(C)cc3)C2)cc1 (configuration not stated)
2. Cc1ccc(NC(=O)c2cc(-c3ccc(C)o3)nc3ccccc23)nc1

A:
1: 1.94; 2: 76.5

Batch: inhibition (reported as % activation of signal) for all items listed.
1. O=C(COC(=O)c1ccccc1)Nc1ccccc1Sc1ccccc1
2. O=S(=O)(c1cccc(-c2nnc(SC(F)F)n2-c2ccccc2)c1)N1CCCCC1
3. Cc1cc(C)c2cc(C#N)c(N3CCNCC3)nc2c1
4. O=C(COC(=O)CNS(=O)(=O)c1ccc(F)c(F)c1F)NC1CCCC1
5. CCC[C@@H]1C[C@@]1(CCC)[C@@H](NC(=O)c1ccccc1)c1ccc(C(=O)OC)cc1

A:
0.84
-1.8
6.52
1.29
-1.36

# batch size: 4; output inhibition (reported as % activation of signal) per entry
1. O=C(O)C1CCC(CNS(=O)(=O)c2ccc(Br)cc2)CC1 (configuration not stated)
2. CC(=O)N1CCN(C(=O)c2cc(-c3ccc(C)o3)nc3ccccc23)CC1
3. CCc1c(C)c2c(C)[nH]nc2oc1=O
4. O=C1NCC(Nc2ccccc2)C(=O)N1 (configuration not stated)

A:
0.46
1.05
-3.15
0.4
